Ki: recorded values
biological target: human MAO-A (Homo sapiens, UniProt P21397)
Sequence (P21397 whole entry): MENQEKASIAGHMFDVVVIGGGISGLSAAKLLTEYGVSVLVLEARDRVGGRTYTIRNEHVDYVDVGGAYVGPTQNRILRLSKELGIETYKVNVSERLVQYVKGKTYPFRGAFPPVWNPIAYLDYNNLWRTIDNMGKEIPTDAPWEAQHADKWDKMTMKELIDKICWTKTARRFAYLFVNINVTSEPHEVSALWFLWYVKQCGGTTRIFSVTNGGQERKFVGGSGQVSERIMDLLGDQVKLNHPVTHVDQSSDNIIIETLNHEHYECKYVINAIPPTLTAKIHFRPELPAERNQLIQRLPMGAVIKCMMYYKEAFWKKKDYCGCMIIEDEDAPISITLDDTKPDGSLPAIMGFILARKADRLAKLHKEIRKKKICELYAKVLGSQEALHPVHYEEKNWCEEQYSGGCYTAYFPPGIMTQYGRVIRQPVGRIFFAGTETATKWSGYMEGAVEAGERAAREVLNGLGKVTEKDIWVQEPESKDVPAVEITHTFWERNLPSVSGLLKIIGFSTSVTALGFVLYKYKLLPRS
Observable: Ki (µM)

>>> obs_value("CC(=O)NC[C@H]1CN(c2ccc(N3CCC(C#N)CC3)c(F)c2)C(=O)O1")
1.05
>>> obs_value("CC(=O)NC[C@H]1CN(c2ccc(N3CCOCC3)c(F)c2)C(=O)O1 [Linezolid, reference compound]")
6.96

* * *

biological target: human MAO-B (Homo sapiens)
Sequence (P27338 whole entry): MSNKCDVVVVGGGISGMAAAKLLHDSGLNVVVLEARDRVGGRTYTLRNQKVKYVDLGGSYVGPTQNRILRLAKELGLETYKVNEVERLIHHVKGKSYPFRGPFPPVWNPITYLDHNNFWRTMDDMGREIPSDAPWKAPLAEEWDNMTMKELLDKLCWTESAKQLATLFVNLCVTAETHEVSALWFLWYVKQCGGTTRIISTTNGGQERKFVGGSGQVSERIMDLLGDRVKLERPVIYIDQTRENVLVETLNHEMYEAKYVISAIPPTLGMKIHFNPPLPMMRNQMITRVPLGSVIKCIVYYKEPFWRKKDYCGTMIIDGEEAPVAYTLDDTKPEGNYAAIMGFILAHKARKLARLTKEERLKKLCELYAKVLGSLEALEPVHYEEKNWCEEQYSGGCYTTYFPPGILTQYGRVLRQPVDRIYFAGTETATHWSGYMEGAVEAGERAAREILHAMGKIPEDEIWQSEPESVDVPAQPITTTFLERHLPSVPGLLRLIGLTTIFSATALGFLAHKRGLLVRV
pKi: −log10 of the molar value.
Observable: pKi

>>> obs_value("CC(=O)NC[C@H]1CN(c2ccc(N3CCC(C#N)CC3)c(F)c2)C(=O)O1 [Compound (Ia)]")
5.61
